# Tested on: PC-3
# Assay Text: Antiproliferative activity against human PC3 cells after 48 hrs by MTT assay
# Assay type: functional, cell-based
# Details: PC-3, 48 h
Recorded Metric: pIC50
Schema: pIC50 number; meaning minus log10 of the concentration expressed in molar units.

Q: Request the reported pIC50 associated with COc1ccccc1-n1cc(CNC(=O)[C@]23CCC(C)(C)C[C@H]2C2=CC[C@@H]4[C@@]5(C)CC[C@H](O[C@@H]6OC[C@H](O[C@@H]7O[C@H](CO)[C@@H](O)[C@H](O)[C@H]7O)[C@H](O)[C@H]6O[C@@H]6O[C@@H](C)[C@H](O)[C@@H](O)[C@H]6O)C(C)(C)[C@@H]5CC[C@@]4(C)[C@]2(C)CC3)nn1
Ans: 4.42

Q: Which value of pIC50 has been reported for C[C@@H]1O[C@@H](O[C@H]2[C@H](O[C@H]3CC[C@]4(C)[C@H]5CC=C6[C@@H]7CC(C)(C)CC[C@]7(C(=O)NCc7cn(-c8cccc(Br)c8)nn7)CC[C@@]6(C)[C@]5(C)CC[C@H]4C3(C)C)OC[C@H](O[C@@H]3O[C@H](CO)[C@@H](O)[C@H](O)[C@H]3O)[C@@H]2O)[C@H](O)[C@H](O)[C@H]1O in the records?
Ans: 6.31
